The values you see were collected from patent US20240217957A1.

molecular target: human OX2 receptor (Homo sapiens, UniProt O43614); construct: expressed in transfected cells; assay: Measurement of orexin type 2 receptor agonist activity (calcium fluorescence, Fluo-4 AM, FDSS); assay type: cell-based; details: compound at 3 μM; CHO cells forcibly expressing human OX2 receptor; DMSO = 0%, 10 nM orexin A (human) = 100%
Sequence (O43614 whole entry): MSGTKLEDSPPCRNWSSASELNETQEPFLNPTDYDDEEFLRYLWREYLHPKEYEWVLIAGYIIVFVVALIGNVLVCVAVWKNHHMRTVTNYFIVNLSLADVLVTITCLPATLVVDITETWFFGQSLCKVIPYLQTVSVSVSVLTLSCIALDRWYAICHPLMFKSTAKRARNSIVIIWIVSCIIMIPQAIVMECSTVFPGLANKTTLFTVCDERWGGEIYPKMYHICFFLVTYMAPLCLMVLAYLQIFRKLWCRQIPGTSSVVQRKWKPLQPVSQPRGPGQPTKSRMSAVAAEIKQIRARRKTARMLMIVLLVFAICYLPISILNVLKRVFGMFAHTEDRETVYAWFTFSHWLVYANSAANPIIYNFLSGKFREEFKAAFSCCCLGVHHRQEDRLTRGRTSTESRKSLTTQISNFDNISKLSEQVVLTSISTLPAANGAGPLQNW
Each entry below lists one item and its recorded OX2R agonist activity (3 μM, %) value.
Please state the number and follow it with the unit.

These recorded examples may help you get a feel for the data.
Compound	Assayed system	Measured attribute	Result
C[C@]1(F)CN(C2=NOC(c3c(F)ccc(F)c3-c3c(F)cccc3F)C2)C[C@H]1NS(C)(=O)=O (single isomer, unassigned) [Example 168]	human OX2 receptor (Homo sapiens, UniProt O43614)	OX2R agonist activity (3 μM, %)	103%
O=S(=O)(CF)N[C@@H]1CN(C2=NOC(CF)(c3ncc(F)cc3-c3c(F)cc(F)cc3F)C2)C[C@@H]1F (stereo partly shown) [Example 163]	human OX2 receptor (Homo sapiens, UniProt O43614)	OX2R agonist activity (3 μM, %)	98%
CS(=O)(=O)N[C@@H]1CN(C2=NOC(c3ccc(F)c(F)c3-c3c(F)cccc3F)C2)CC1(F)F (stereo partly shown) [Example 140]	human OX2 receptor (Homo sapiens, UniProt O43614)	OX2R agonist activity (3 μM, %)	89%
Cc1ccc(C2CC(N3C[C@H](F)[C@H](NS(C)(=O)=O)C3)=NO2)c(-c2ncc(F)cc2F)c1 (stereo partly shown) [Example 124]	human OX2 receptor (Homo sapiens, UniProt O43614)	OX2R agonist activity (3 μM, %)	97%
O=S(=O)(CF)N[C@H]1CCN(C2=NOC(c3ncc(F)cc3-c3c(F)cc(F)cc3F)C2)C1 (stereo partly shown) [Example 36]	human OX2 receptor (Homo sapiens, UniProt O43614)	OX2R agonist activity (3 μM, %)	103%
Cc1cc(F)c(C2CC(N3C[C@H](F)[C@H](NS(C)(=O)=O)C3)=NO2)c(-c2ncc(F)cc2F)c1 (stereo partly shown) [Example 178]	human OX2 receptor (Homo sapiens, UniProt O43614)	OX2R agonist activity (3 μM, %)	111%
CC1(c2ncc(F)cc2-c2c(F)cccc2F)CC(N2CC[C@H](NS(C)(=O)=O)C2)=NO1 (stereo partly shown) [Example 122]	human OX2 receptor (Homo sapiens, UniProt O43614)	OX2R agonist activity (3 μM, %)	102%
O=S(=O)(CF)N[C@@H]1CN(C2=NO[C@H](c3ncc(F)cc3-c3c(F)cc(F)cc3F)C2)CC1(F)F [Example 128]	human OX2 receptor (Homo sapiens, UniProt O43614)	OX2R agonist activity (3 μM, %)	105%
CS(=O)(=O)N[C@@H]1CN(C2=NOC(CO)(c3ncc(Cl)cc3-c3c(F)cccc3F)C2)CC1(F)F (stereo partly shown) [Example 142]	human OX2 receptor (Homo sapiens, UniProt O43614)	OX2R agonist activity (3 μM, %)	102%
Cc1ncc(C2CC(N3C[C@@H](NS(C)(=O)=O)C(F)(F)C3)=NO2)c(-c2c(F)cccc2F)n1 (stereo partly shown) [Example 134]	human OX2 receptor (Homo sapiens, UniProt O43614)	OX2R agonist activity (3 μM, %)	103%

With those in mind, consider the next compound.
Using human OX2 receptor (Homo sapiens, UniProt O43614) as the test system, report measured OX2R agonist activity (3 μM, %) of Cc1cnc([C@@H]2CC(N3C[C@H](F)[C@H](NS(=O)(=O)CF)C3)=NO2)c(-c2c(F)cc(F)cc2F)c1 [Example 82] . 98%
